# protocol: Resazurin-based cytotoxicity assay on a mammalian cell line
# Set-up: species or system human
# setup.conditions: human; HeLa cells, 10 μM
measured.quantity: viability at 24 h, 10 µM (%)
Numeric answer only, unit % assumed.

Query string: Fill blank: measured viability at 24 h, 10 µM of the compound CC[C@H]1CN2CCc3cc(OC)c(OC)cc3[C@@H]2C[C@@H]1C[C@H]1NCCc2cc(OC)c(OC)cc21 [Emetine, reference compound] is ____.
Result string: 6.03
